# Test system: Kras^+/LSL-G12D mutant spheres
# method: 3D Matrigel sphere culture of Kras mutant (Ad-Cre) pancreatic acinar cells
# Assay type: cell-based, mouse
# condition.parameters: day 5; pilocarpine 1 mM, scopolamine 10 μM, McN-34A 50 μM, pirenzepine 50 μM; vs controls
measured.attribute: size of spheres

1) CC[C@@H]1C(=O)OC[C@@H]1Cc1cncn1C :: smaller
2) CN1[C@@H]2C[C@@H](OC(=O)[C@H](CO)c3ccccc3)C[C@H]1[C@@H]1O[C@@H]12 :: larger
3) CN1CCN(CC(=O)N2c3ccccc3C(=O)Nc3cccnc32)CC1 [pirenzepine] :: larger
4) C[N+](C)(C)CC#CCOC(=O)Nc1cccc(Cl)c1.[Cl-] [McN-34A] :: smaller
